Value source: ChEMBL document CHEMBL1201862

Each entry below lists one item and its recorded GI50 value.
system: MOLT-4; assay: NCI tumour cell line growth inhibition, 48 h
Calls of active or inactive are those of the source. Cut-off read from the data, not from the text of the source: active = GI50 up to about 1.1 µM and inactive = higher.

molecule="COc1ccc(N2C(=O)C3c4[nH]c5ccc([N+](=O)[O-])cc5c4C4CCC(C(C)(C)C)CC4C3C2=O)cc1 (centres undefined)" readout_name=GI50 test_result="14.3 µM (inactive)"
molecule=CCc1ccccc1NC(=O)C1=C(C)NC(C)=C(C(=O)Nc2ccccc2CC)C1c1ccccc1Cl readout_name=GI50 test_result="92.7 µM (inactive)"
molecule=O=C(N/N=C1/C(=O)c2c3ccccc3cc3cccc1c23)c1ccccc1 readout_name=GI50 test_result="> 62.7 µM (inactive)"
molecule="O=C([O-])Cc1ccccc1.[Na+] [SODIUM PHENYLACETATE]" readout_name=GI50 test_result="289 µM (inactive)"
molecule="ON1CCc2c([nH]c3ccccc23)C1c1ccc(Cl)cc1 (centres undefined)" readout_name=GI50 test_result="21.4 µM (inactive)"
molecule="N#Cc1cc([N+](=O)[O-])ccc1NC(=O)C(=O)C(C(=O)c1ccc2ccccc2c1)C1OCc2ccccc21 (centres undefined)" readout_name=GI50 test_result="2.18 µM (inactive)"

Need GI50, item O=C(N/N=C(\C1=Nc2ccc(Cl)cc2NC1O)C(O)/C=C/c1ccccc1)c1ccncc1 (centres undefined) > 100 µM (inactive)

Same again, this time with `CC1(C)OC[C@@H](O)[C@H](C#N)CO1` > 100 µM (inactive)

Same again, this time with `NC(=O)c1ncn(CCN2CCN(C(=O)NCCCCCCNC(=O)N3CCN(CCn4cnc(C(N)=O)c4N)CC3)CC2)c1N` > 100 µM (inactive)
